Listing of recorded remaining at 10 min, 0.5 µM by entry.
- ASSAY TEXT: Metabolic stability in human liver microsomes assessed as parent compound remaining at 0.5 uM after 10 mins
- Assay type: ADME
- EXPERIMENTAL CONTEXT: read-out: Stability

| GIVEN SMILES | remaining at 10 min, 0.5 µM / % |
| --- | --- |
| Cc1noc(C)c1[C@@H]1C[C@@](C)(c2cccc(NC(=O)c3ccc(Cl)cn3)c2F)N=C(N)S1 | 38 |
| Cc1noc(C)c1[C@@H]1C[C@@](C)(c2cc(-c3cncnc3)c(F)cc2F)N=C(N)S1 | 23 |
| Cc1noc(C)c1[C@@H]1C[C@@](C)(c2cc(F)cc(NC(=O)c3ccc(Cl)cn3)c2)N=C(N)S1 | 39 |
| Cc1noc(C)c1[C@@H]1C[C@@](C)(c2cc(NC(=O)c3ccc(Cl)cn3)c(F)cc2F)N=C(N)S1 | 78 |
| COc1cnc(C(=O)Nc2cc(F)c(F)c([C@]3(C)C[C@@H](c4c(C)noc4C)SC(N)=N3)c2)cn1 | 81 |
| Cc1noc(C)c1[C@@H]1C[C@@](C)(c2cc(NC(=O)c3ccc(Cl)cn3)cc(F)c2F)N=C(N)S1 | 87 |

###

- ASSAY TEXT: Plasma concentration in rat at 10 mg/kg, po after 5 hrs
- Format: ADME, organism-based

| GIVEN SMILES | UNITS LABEL | concentration at 5 h |
| --- | --- | --- |
| COc1cnc(C(=O)Nc2cc(F)c(F)c([C@]3(C)C[C@@H](c4c(C)noc4C)SC(N)=N3)c2)cn1 | nM | 1500 |

###

- ASSAY TEXT: Ratio of drug level in rat brain to plasma at 3 mg/kg, po after 5 hrs
- Assay type: ADME, organism-based
- EXPERIMENTAL CONTEXT: read-out: BPR

| GIVEN SMILES | Kp at 5 h |
| --- | --- |
| COc1cnc(C(=O)Nc2cc(F)c(F)c([C@]3(C)C[C@@H](c4c(C)noc4C)SC(N)=N3)c2)cn1 | 0.46 |

###

- ASSAY TEXT: Plasma concentration in rat at 1 mg/kg, po after 5 hrs
- Type: ADME, organism-based

| GIVEN SMILES | UNITS LABEL | concentration at 5 h |
| --- | --- | --- |
| COc1cnc(C(=O)Nc2cc(F)c(F)c([C@]3(C)C[C@@H](c4c(C)noc4C)SC(N)=N3)c2)cn1 | nM | 150 |

###

- ASSAY TEXT: Drug level in rat brain at 3 mg/kg, po after 5 hrs
- Type: ADME, organism-based
- EXPERIMENTAL CONTEXT: read-out: Drug uptake

| GIVEN SMILES | concentration at 5 h [µM] |
| --- | --- |
| COc1cnc(C(=O)Nc2cc(F)c(F)c([C@]3(C)C[C@@H](c4c(C)noc4C)SC(N)=N3)c2)cn1 | 0.16 |

###

- ASSAY TEXT: Drug level in rat brain at 1 mg/kg, po after 5 hrs
- Format: ADME, organism-based
- EXPERIMENTAL CONTEXT: read-out: Drug uptake

| GIVEN SMILES | concentration at 5 h [nM] |
| --- | --- |
| COc1cnc(C(=O)Nc2cc(F)c(F)c([C@]3(C)C[C@@H](c4c(C)noc4C)SC(N)=N3)c2)cn1 | 67 |
